# tested.target: human RXFP1 (Homo sapiens, UniProt Q9HBX9)
# assay.notes: hRXFP1 HEK293 cAMP assay (HTRF)
# condition.notes: HEK293 cells stably expressing human RXFP1, 30 min at room temperature
# Experimental: RXFP1 Cyclic Adenosine Monophosphate (cAMP) Assays. […] Cells were dissociated and suspended in assay buffer. The assay buffer was HBSS buffer (with calcium and magnesium) containing 20 mM HEPES, 0.05% BSA, and 0.5 mM IBMX. […] The level of intracellular cAMP was determined using the HTRF HiRange cAMP assay reagent kit (Cisbio) according to manufacturer's instructions. […]
Parameter pEC50: see the listing below.
The read-out pEC50 is expressed as -log10 of concentration in moles per litre.

The following compounds have reported results that may help.
INSERT INTO measurements (compound, measured_parameter, meas_value) VALUES
  ('COc1ccc(C2CCCC2)cc1C(=O)N[C@@H]1C2CCC(/C2=C/C(F)(F)F)[C@@H]1C(=O)Nc1ccc(F)c(C(F)(F)F)c1 (stereo partly drawn)', 'pEC50', 6.03),
  ('COc1ccc(/C=C/C(=O)N[C@H]2C[C@@H](O)C2)cc1C(=O)N[C@@H]1C2CCC(/C2=C/C2CC2)[C@@H]1C(=O)Nc1ccc(F)c(C(F)(F)F)c1 (stereo partly drawn)', 'pEC50', 7.02);

For record COc1ccc(CCC(C)(C)O)cc1C(=O)NC1C2CCC(/C2=C/C2CC(F)(F)C2)[C@@H]1C(=O)Nc1ccc(F)c(C(F)(F)F)c1 (stereo partly drawn) the listed pEC50 is 7.29

---

# tested.target: human RXFP1 (Homo sapiens, UniProt Q9HBX9)
# Construct: expressed in transfected cells
# assay.notes: hRXFP1 HEK293 cAMP assay (HTRF)
# Type: cell-based
# condition.notes: HEK293 cells stably expressing human RXFP1, 30 min at room temperature
measured.parameter: EC50
Entry format: amount then unit.

Solved entries:
INSERT INTO results (compound, meas_value) VALUES
  ('COc1ccc(/C=C/C(N)=O)cc1C(=O)N[C@@H]1C2CCC(/C2=C/C(F)(F)F)[C@@H]1C(=O)Nc1ccc(F)c(C(F)(F)F)c1 (stereo partly drawn) [Example 132]', '380 nM'),
  ('COc1ccc(CCc2ccc(F)cc2)cc1C(=O)NC1C2CCC(/C2=C/C(F)(F)F)[C@@H]1C(=O)Nc1ccc(F)c(C(F)(F)F)c1 (stereo partly drawn) [Example 179]', '267 nM');

Form: item COc1ccc(S(=O)(=O)Cc2ccccc2)cc1C(=O)N[C@@H]1C2CCC(/C2=C/C(F)(F)F)[C@@H]1C(=O)Nc1ccc(F)c(C(F)(F)F)c1 (stereo partly drawn) [Example 3] ; test system human RXFP1 (Homo sapiens, UniProt Q9HBX9); EC50: 560 nM

---

# key: entry, value: EC50
# tested.target: human RXFP1 (Homo sapiens, UniProt Q9HBX9)
# Sequence (Q9HBX9 1-757): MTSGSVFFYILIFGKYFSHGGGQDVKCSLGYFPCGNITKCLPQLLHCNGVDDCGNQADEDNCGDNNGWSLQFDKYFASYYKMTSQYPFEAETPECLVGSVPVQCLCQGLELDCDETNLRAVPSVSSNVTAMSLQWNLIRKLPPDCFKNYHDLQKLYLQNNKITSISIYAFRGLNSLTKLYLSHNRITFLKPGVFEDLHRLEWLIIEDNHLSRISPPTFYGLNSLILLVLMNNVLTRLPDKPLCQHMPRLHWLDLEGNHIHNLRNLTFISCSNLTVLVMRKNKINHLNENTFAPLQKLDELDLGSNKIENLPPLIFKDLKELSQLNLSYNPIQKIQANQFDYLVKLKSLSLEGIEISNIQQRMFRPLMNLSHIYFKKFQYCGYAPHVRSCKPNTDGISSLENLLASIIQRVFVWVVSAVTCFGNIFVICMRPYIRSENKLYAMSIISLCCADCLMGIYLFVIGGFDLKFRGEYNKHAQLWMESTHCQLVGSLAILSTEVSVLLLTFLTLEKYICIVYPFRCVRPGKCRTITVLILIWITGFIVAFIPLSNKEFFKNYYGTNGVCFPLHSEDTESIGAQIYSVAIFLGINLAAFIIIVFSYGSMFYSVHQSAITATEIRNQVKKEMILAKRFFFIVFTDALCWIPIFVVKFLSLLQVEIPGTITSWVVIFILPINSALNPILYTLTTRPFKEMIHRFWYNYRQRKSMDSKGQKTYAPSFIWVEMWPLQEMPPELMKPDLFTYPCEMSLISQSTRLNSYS
# assay.notes: hRXFP1 HEK293 cAMP assay (HTRF)
# condition.notes: HEK293 cells stably expressing human RXFP1, 30 min at room temperature
A number alone suffices; assume µM.

Worked examples follow.
INSERT INTO assay_data (compound, meas_value) VALUES
  ('COc1ccc(S(=O)(=O)N(CCO)CCO)cc1C(=O)N[C@H]1[C@@H](C(=O)Nc2ccc(F)c(C(F)(F)F)c2)[C@H]2CC[C@@H]1/C2=C\C(F)(F)F', 0.221),
  ('COc1ccc(/C=C/C(=O)N(C)CCO)cc1C(=O)N[C@@H]1C2CCC(/C2=C/C(F)(F)F)[C@@H]1C(=O)Nc1ccc(F)c(C(F)(F)F)c1 (some centres unmarked)', 0.035),
  ('COc1ccc(C(=O)N2CCC(S(C)(=O)=O)C2)cc1C(=O)N[C@H]1[C@@H](C(=O)Nc2ccc(F)c(C(F)(F)F)c2)[C@H]2CC[C@@H]1/C2=C\C1CC1 (some centres unmarked) [Example 257]', 0.0908),
  ('COc1ccc(S(=O)(=O)N2CCS(=O)(=O)CC2)cc1C(=O)N[C@H]1[C@@H](C(=O)Nc2ccc(F)c(C(F)(F)F)c2)[C@H]2CC[C@@H]1/C2=C\C1CC1', 0.0849);

Turning now to a further compound:
So, COc1ccc(C(=O)N2C[C@H]3CNC[C@H]3C2)cc1C(=O)N[C@H]1[C@@H](C(=O)Nc2ccc(F)c(C(F)(F)F)c2)[C@H]2CC[C@@H]1/C2=C\C1CC1 ? Its EC50 was 0.432

---

Parameter: log10 EC50. Scope: all listed entries.
# tested.target: human RXFP1 (Homo sapiens)
# Sequence (Q9HBX9 1-757): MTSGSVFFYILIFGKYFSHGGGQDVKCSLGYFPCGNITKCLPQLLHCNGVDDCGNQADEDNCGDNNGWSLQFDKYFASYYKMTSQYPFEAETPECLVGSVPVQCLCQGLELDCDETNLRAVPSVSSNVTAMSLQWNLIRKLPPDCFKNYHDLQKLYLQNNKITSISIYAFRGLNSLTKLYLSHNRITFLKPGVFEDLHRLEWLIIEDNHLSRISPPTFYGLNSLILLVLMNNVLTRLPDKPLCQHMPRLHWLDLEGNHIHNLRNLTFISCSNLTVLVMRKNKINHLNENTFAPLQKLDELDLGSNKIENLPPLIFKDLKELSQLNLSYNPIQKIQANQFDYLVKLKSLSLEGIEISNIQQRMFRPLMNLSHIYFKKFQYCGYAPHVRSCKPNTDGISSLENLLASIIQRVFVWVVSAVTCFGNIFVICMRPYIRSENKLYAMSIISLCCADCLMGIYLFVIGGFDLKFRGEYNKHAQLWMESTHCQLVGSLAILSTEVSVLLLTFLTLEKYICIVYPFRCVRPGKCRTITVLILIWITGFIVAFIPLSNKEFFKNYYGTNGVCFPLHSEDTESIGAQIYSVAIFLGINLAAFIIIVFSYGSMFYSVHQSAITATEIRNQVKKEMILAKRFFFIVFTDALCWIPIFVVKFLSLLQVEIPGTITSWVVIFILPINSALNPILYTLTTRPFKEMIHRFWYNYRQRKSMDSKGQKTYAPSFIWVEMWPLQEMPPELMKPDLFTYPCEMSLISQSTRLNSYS
# assay.notes: hRXFP1 HEK293 cAMP assay (HTRF)
# condition.notes: HEK293 cells stably expressing human RXFP1, 30 min at room temperature
Values reflect log10 of reported EC50 (nM).

INSERT INTO measurements (compound, measured_parameter, meas_value) VALUES
  ('COc1ccc(C23CCC(C(C)(C)O)(CC2)CC3)cc1C(=O)N[C@H]1[C@@H](C(=O)Nc2ccc(F)c(C(F)(F)F)c2)[C@H]2CC[C@@H]1/C2=C\C1CC1 [Example 275]', 'log10 EC50', 1.62);

Observed log10 EC50, human RXFP1 (Homo sapiens), COc1ccc(CCCNC(=O)CO)cc1C(=O)N[C@@H]1C2CCC(/C2=C/C(F)(F)F)[C@@H]1C(=O)Nc1ccc(F)c(C(F)(F)F)c1 (some centres unmarked) : 2.97

// log10 EC50 (human RXFP1 (Homo sapiens)) for COCc1ncn(Cc2ccc(OC)c(C(=O)N[C@H]3[C@@H](C(=O)Nc4ccc(F)c(C(F)(F)F)c4)[C@H]4CC[C@@H]3/C4=C\C3CC3)c2)n1 = 2.03

The reported log10 EC50 value, human RXFP1 (Homo sapiens), for COc1ccc(/C=C/C(=O)NCCO)cc1C(=O)N[C@@H]1C2CCC(/C2=C/C(F)(F)F)[C@@H]1C(=O)Nc1ccc(F)c(C(F)(F)F)c1 (some centres unmarked) reads 2.58

log10 EC50 on human RXFP1 (Homo sapiens) for COc1ccc(C(=O)N2CC(O)C2)cc1C(=O)N[C@H]1[C@@H](C(=O)Nc2ccc(F)c(C(F)(F)F)c2)[C@H]2CC[C@@H]1/C2=C\C1CC1 is 1.64

Source listed as patent US20250268903A1.
